The values you see were collected from patent US8592422B2.

Listed here: items and their measured pEC50.
# testedTarget: human mGluR5a receptor (Homo sapiens)
# Construct: cDNA subcloned into pcDNA3.1(-)
# protocolDetails: Cell-based functional Ca2+ mobilization assay (FDSS), potentiation of glutamate EC20 response
# conditionInfo: HEK cells transfected with human mGluR5 (H10H or H12H); in presence of EC20 glutamate; read-out: EC50
Scale explanation: pEC50 corresponds to minus log10 of a concentration expressed in moles per litre.

Example cases with answers are listed next.
molecule	measurement
CC1Cn2nc(COc3cccc(F)c3)cc2C(=O)N1c1ccc(F)cc1 (stereo not shown)	7.25
CC1CN(c2ccc(F)cc2)C(=O)c2cc(COc3ccc(F)cc3)nn21 (racemic) [Example 234]	6.85
Cc1ccc(N2CCn3nc(COc4ccccc4)cc3C2=O)cc1F	7.28

pEC50 of `O=C1c2cc(COc3ccccc3)nn2CCN1c1ccc(F)cn1` on human mGluR5a receptor (Homo sapiens)?
6.81

How about this molecule: Cc1cccc(N2C(=O)c3cc(COc4ccccc4)nn3CC2C)c1 (stereo not shown)
7.22

How about this molecule: `Cc1ccc(N2CCn3nc(COc4ccccc4)cc3C2=O)nc1N(C)C`
7.47

---

measuredMetric: melting point (°C)
# number only, unit °C dropped from output

molecule	measuredMetric	measurement
Cc1ccccc1N1C(=O)c2cc(COc3ccccc3)nn2C[C@H]1C [Example 154]	melting point	171.5
O=C1c2cc(COc3ccccc3F)nn2CCN1c1ccc(F)cc1 [Example 190]	melting point	183.3
CN(C)c1cccc(N2CCn3nc(COc4cccc(F)c4)cc3C2=O)n1 [Example 316]	melting point	121.2
O=C1c2cc(COc3ccc(O)cc3)nn2CCN1c1ccc(F)cn1 [Example 355]	melting point	212.7
Cc1cnccc1OCc1cc2n(n1)CCN(c1ccc(F)cc1)C2=O [Example 189]	melting point	168.3

# get_value(readout='melting point', item= O=C1c2cc(COc3ccccc3)nn2CCN1c1cccc(F)c1 [Example 8] )
155

How about this molecule: Cc1cncc(OCc2cc3n(n2)CCN(c2ccc(F)cc2)C3=O)n1 [Example 200]
156.6

How about this molecule: CN(C)c1cccc(OCc2cc3n(n2)CCN(c2ccc(F)cc2)C3=O)n1 [Example 310]
153.8

---

# testedTarget: human mGluR5a receptor (Homo sapiens)
# Construct: cDNA subcloned into pcDNA3.1(-)
# protocolDetails: Cell-based functional Ca2+ mobilization assay (FDSS), potentiation of glutamate EC20 response
# conditionInfo: HEK cells transfected with human mGluR5 (H10H or H12H); in presence of EC20 glutamate; read-out: EC50
measuredMetric: pEC50
Scale explanation: pEC50 corresponds to minus log10 of a concentration expressed in moles per litre.

Example cases with answers are listed next.
compound	measuredMetric	measurement
CC1Cn2nc(COc3ccccc3)cc2C(=O)N1c1ccc(F)cn1 (stereo not drawn)	pEC50	6.05
Cc1nc(N2CC(C)n3nc(COc4ccccc4)cc3C2=O)ccc1F (single isomer, unassigned) [Example 135]	pEC50	7.00
O=C1c2cc(COc3ccccc3)nn2CCN1c1cccc(CCF)n1	pEC50	6.69
COc1nc(N2CCn3nc(COc4ccccn4)cc3C2=O)ncc1F	pEC50	6.28

# get_value(readout='pEC50', item= `Cc1ccc(N2CCn3nc(COc4ccccc4)cc3C2=O)nc1` )
6.68

How about this compound: `COc1nc(N2CCn3nc(COc4ccccc4)cc3C2=O)ccc1F`
7.64

How about this compound: O=C1c2cc(COc3ccccc3)nn2C(F)CN1c1ccc(F)cc1 (racemic) [Example 271]
7.05

How about this compound: COc1nccc(N2C(=O)c3cc(COc4ccccc4)nn3CC2C)n1 (stereo not drawn)
5.85

---

# testedTarget: human mGluR5a receptor (Homo sapiens, UniProt P41594)
# Construct: cDNA subcloned into pcDNA3.1(-)
# Sequence (P41594 21-1180 isoform P41594-2 limits assumed): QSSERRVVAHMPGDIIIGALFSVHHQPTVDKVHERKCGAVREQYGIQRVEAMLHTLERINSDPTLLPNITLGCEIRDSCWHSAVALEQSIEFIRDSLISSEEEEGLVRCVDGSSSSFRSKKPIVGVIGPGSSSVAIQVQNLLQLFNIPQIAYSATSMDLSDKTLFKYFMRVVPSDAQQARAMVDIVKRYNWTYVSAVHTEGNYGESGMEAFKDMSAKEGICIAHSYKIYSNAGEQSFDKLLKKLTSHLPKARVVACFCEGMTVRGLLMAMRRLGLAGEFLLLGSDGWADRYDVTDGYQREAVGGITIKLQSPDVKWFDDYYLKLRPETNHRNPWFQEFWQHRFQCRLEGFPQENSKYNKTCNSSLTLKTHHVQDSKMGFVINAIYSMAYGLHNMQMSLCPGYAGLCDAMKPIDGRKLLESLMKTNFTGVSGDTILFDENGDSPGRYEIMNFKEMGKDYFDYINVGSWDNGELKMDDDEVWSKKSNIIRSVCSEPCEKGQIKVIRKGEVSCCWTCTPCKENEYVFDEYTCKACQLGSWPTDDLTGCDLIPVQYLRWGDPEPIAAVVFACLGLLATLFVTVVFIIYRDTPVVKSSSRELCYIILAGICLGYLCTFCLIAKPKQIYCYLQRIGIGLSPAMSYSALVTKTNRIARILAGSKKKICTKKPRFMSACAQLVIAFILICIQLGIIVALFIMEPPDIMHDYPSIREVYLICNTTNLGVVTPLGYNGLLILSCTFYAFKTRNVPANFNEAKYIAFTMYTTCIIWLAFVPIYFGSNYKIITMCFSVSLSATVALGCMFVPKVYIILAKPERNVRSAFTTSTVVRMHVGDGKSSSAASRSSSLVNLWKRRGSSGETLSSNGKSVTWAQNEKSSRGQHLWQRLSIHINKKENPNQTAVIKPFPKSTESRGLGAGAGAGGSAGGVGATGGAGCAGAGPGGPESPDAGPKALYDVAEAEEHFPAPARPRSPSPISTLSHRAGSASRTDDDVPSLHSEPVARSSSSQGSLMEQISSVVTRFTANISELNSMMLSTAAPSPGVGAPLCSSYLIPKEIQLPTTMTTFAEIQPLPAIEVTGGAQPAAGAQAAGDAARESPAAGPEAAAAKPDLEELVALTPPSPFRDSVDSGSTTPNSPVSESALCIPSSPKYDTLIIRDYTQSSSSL
# protocolDetails: Cell-based functional Ca2+ mobilization assay (FDSS), potentiation of glutamate EC20 response
# conditionInfo: EC50 (nM), HEK cells transfected with human mGluR5 (H10H or H12H); in presence of EC20 glutamate
measuredMetric: EC50 (nM)
# number only, unit nM dropped from output

Example cases with answers are listed next.
moleculeSmiles	testedTarget	measureUnit	measurement
O=C1c2cc(COc3ccccc3)nn2CCN1c1cccc(F)c1	human mGluR5a receptor (Homo sapiens, UniProt P41594)	nM	132
O=C1c2cc(COc3ccccc3)nn2CCN1c1ccccc1F	human mGluR5a receptor (Homo sapiens, UniProt P41594)	nM	162
O=C1c2cc(COc3ccccc3)nn2CCN1c1ncc(F)cn1	human mGluR5a receptor (Homo sapiens, UniProt P41594)	nM	780

Could you now look at the following compound, please?
# get_value(readout='EC50', item= `O=C1c2cc(COc3ccccc3F)nn2CCN1c1ccc(F)cc1` )
145

---

# testedTarget: human mGluR5a receptor (Homo sapiens)
# Construct: cDNA subcloned into pcDNA3.1(-)
# protocolDetails: Cell-based functional Ca2+ mobilization assay (FDSS), potentiation of glutamate EC20 response
# conditionInfo: HEK cells transfected with human mGluR5 (H10H or H12H); in presence of EC20 glutamate
measuredMetric: pEC50

# get_value(readout='pEC50', item= O=C1c2cc(COc3ccccc3)nn2CCN1c1cccc(N2CCCC2)n1 [Example 281] )
6.58

How about this compound: Cc1ccc(N2CCn3nc(COc4ccccc4)cc3C2=O)cc1 [Example 49]
7.09

How about this compound: COc1cc(OC)nc(N2CCn3nc(COc4ccccc4)cc3C2=O)n1 [Example 127]
6.68

How about this compound: CCOc1ccccc1N1CCn2nc(COc3ccccc3)cc2C1=O [Example 57]
6.82

How about this compound: Cn1cc(N2CCn3nc(COc4ccccc4)cc3C2=O)cn1 [Example 320]
<5.00

How about this compound: O=C1c2cc(COc3ccccc3)nn2CC(CO)N1c1ccc(F)cc1 (stereo not drawn) [Example 268]
<5.00

How about this compound: CN(C)c1nccnc1N1CCn2nc(COc3ccccc3)cc2C1=O [Example 288]
6.40

How about this compound: O=C1c2cc(COc3ccccc3)nn2C(F)CN1c1ccc(F)cc1 (single isomer, unassigned) [Example 273]
6.97

How about this compound: COc1ccc(N2CCn3nc(COc4ccccc4)cc3C2=O)cc1F [Example 58]
6.92

---

# testedTarget: human mGluR5a receptor (Homo sapiens)
# Construct: cDNA subcloned into pcDNA3.1(-)
# protocolDetails: Cell-based functional Ca2+ mobilization assay (FDSS), potentiation of glutamate EC20 response
# conditionInfo: HEK cells transfected with human mGluR5 (H10H or H12H); in presence of EC20 glutamate; read-out: EC50
measuredMetric: EC50 (nM)
# number only, unit nM dropped from output

compound	testedTarget	measureUnit	EC50
COc1nc(N2C(=O)c3cc(COc4ccccc4)nn3CC2C)ncc1F (centres unmarked)	human mGluR5a receptor (Homo sapiens)	nM	537
COc1nccnc1N1CCn2nc(COc3ccc(F)cc3)cc2C1=O	human mGluR5a receptor (Homo sapiens)	nM	830

# get_value(readout='EC50', item= `CN(C)c1ccc(N2CCn3nc(COc4ccccc4)cc3C2=O)nn1` )
2820

---

# testedTarget: human mGluR5a receptor (Homo sapiens)
# Construct: cDNA subcloned into pcDNA3.1(-)
# protocolDetails: Cell-based functional Ca2+ mobilization assay (FDSS), potentiation of glutamate EC20 response
# conditionInfo: maximum % effect in concentration-response curve, as percent of response to maximally effective glutamate
Listed here: items and their measured Emax.
# number only, unit % dropped from output

Emax of Cc1cnc(N2CCn3nc(COc4ccccc4)cc3C2=O)cn1 [Example 100] on human mGluR5a receptor (Homo sapiens)?
67

---

# testedTarget: human mGluR5a receptor (Homo sapiens, UniProt P41594)
# Construct: cDNA subcloned into pcDNA3.1(-)
# protocolDetails: Cell-based functional Ca2+ mobilization assay (FDSS), potentiation of glutamate EC20 response
# conditionInfo: maximum % effect in concentration-response curve, as percent of response to maximally effective glutamate
Mark fulfilled only for Emax (%) values smaller than 60%; exact matches and larger values are not fulfilled.

molecule	answerLabel
Cc1nc(N2CC(C)n3nc(COc4ccccc4)cc3C2=O)ccc1F (single isomer, unassigned) [Example 135]	fulfilled
COc1ccc(N2CCn3nc(COc4ccccc4)cc3C2=O)nc1OC [Example 301]	fulfilled
COc1ccnc(N2CCn3nc(COc4ccccc4)cc3C2=O)c1 [Example 115]	not fulfilled
CC1Cn2nc(COc3ccccc3)cc2C(=O)N1c1ccc(F)cc1 (stereo not shown) [Example 142]	not fulfilled

A record lists Cc1ccc(N2CCn3nc(COc4ccc(F)cc4)cc3C2=O)cc1 [Example 222] . Is its Emax (%) below 60%?
not fulfilled

How about this molecule: CC(Oc1ccccc1)c1cc2n(n1)CCN(CC1CC1)C2=O (racemic) [Example 257]
fulfilled

How about this molecule: Cc1cnnc(N2CCn3nc(COc4ccccc4)cc3C2=O)c1 [Example 93]
fulfilled

How about this molecule: CN(C)c1nccnc1N1CCn2nc(COc3ccccc3)cc2C1=O [Example 288]
not fulfilled

How about this molecule: O=C1c2cc(COc3ccccc3)nn2CCN1c1cccc(N2CCCC2)n1 [Example 281]
not fulfilled

How about this molecule: O=C1c2cc(COc3ccccc3)nn2CCN1c1ccccn1 [Example 12]
not fulfilled

How about this molecule: COc1nc(C)cc(N2CCn3nc(COc4ccccc4)cc3C2=O)n1 [Example 98]
not fulfilled

How about this molecule: O=C1c2c(Cl)c(COc3ccccc3)nn2CCN1c1ccc(F)cc1 [Example 260]
fulfilled
